- ASSAYED SYSTEM: Integrin alpha-4/beta-1 (Homo sapiens) (UniProt P05556+P13612)
- ASSAY TEXT: Inhibition of C-terminal human lgG1 heavy chain constant region tagged recombinant soluble VCAM-1 binding to integrin alpha4beta1 in human Jurkat cells incubated for 30 mins by FACS based 15/7 antibody assay
- Assay type: cell-based
Active and inactive are the calls of the source. The calls are words filed in the database; no cut-off is given here.
MEASURED ENDPOINT: inhibition

Cc1ccc(S(=O)(=O)N2CCC[C@H]2C(=O)N[C@@H](Cc2ccc(OC(=O)N3CCNCC3)cc2)C(=O)O)cc1 :: Active
Cc1ccc(S(=O)(=O)N2CS(=O)(=O)C(C)(C)[C@@H]2C(=O)N[C@@H](Cc2ccc(OCCCN(C)C)cc2)C(=O)O)cc1 :: Active
CN(C)C(=O)Oc1ccc(C[C@H](NC(=O)[C@@H]2CCCN2S(=O)(=O)c2cnn(C)c2)C(=O)O)cc1 :: Active
